# Test system: MDA-MB-231 cells
# Protocol text: Drug response, cells cultured in hydrogels
# Type: cell-based
# Conditions: Homo sapiens, MDA-MB-231, 48 h, cellular dormancy hydrogel, 48 hr
# Description: DOX, PAC, and 5-FU stocks were diluted in medium to desired concentrations: DOX (0.001, 0.01, 0.05, 0.1, 0.55, 1, or 2 mM), PAC (0.05, 0.1, 0.55, or 1 mM), and 5-FU (1.0, 4.0, 7.0, or 10 mM). At the highest concentrations tested, the DMSO concentration ranged between 1-2% (v/v) for all drugs used. […] 32-34 Fluorescent z-stacks (z-height: 150 μm) were acquired approximately at the center of the hydrogels, between the bottom and top surfaces of each sample, and analyzed using FIJI software (NIH). […]
Endpoint name: pIC50
# log scale: pIC50 equals minus log10 of the concentration in mol/L

Problem: Please give the documented pIC50 of "COc1cccc2c1C(=O)c1c(O)c3c(c(O)c1C2=O)C[C@@](O)(C(=O)CO)C[C@@H]3O[C@H]1C[C@H](N)[C@H](O)[C@H](C)O1"
Result: 4.10
